molecular target: PD-1/PD-L1 (Homo sapiens); construct: purchased Cisbio 63ADK000CPDPEB; experiment: PD-1/PD-L1 binding assay (HTRF, PPI-HTRF); details: HTRF PD1/PD-L1 binding assay kit; 10 nM Tag1-PD-L1; 25° C.

# molecule, IC50
measured = [
    ("COc1cc(/C=C/c2cccc(-c3cccc(-c4nc5cc(CN6CC[C@@H](O)C6)cc(C#N)c5o4)c3C)c2C)c(C(F)(F)F)cc1CN1CC[C@@H](O)C1", "1 nM"),
    ("COc1cc(/C=C/c2cccc(-c3cccc(NC(=O)c4cc(OC)c(CN5CC[C@@H](C(=O)O)C5)cn4)c3C)c2C)c(C(F)(F)F)cc1CN1CC[C@@H](O)C1", "5 nM"),
    ("COc1cc(/C=C/c2cccc(-c3cccc(-c4nc5cc(CN6CCC[C@H]6C(=O)O)cc(C#N)c5o4)c3C)c2C)c(C(F)(F)F)cc1CN1CC[C@@H](O)C1", "1 nM"),
    ("Cc1c(NC(=O)c2ccc(CNCCO)cn2)cccc1-c1ccnc(/C=C/c2ccc3c(c2)CCN(CC(=O)O)C3)c1C#N", "9 nM"),
    ("Cc1cc(/C=C/c2nccc(-c3cccc(NC(=O)c4ccc(CNCCO)cn4)c3C)c2C#N)c(Cl)cc1CNCCO", "1 nM"),
    ("Cc1cc(/C=C/c2nccc(-c3cccc(NC(=O)c4ccc(CN5CC[C@@H](O)C5)cn4)c3C)c2C#N)c(Cl)cc1CN1CCC(C)(C(=O)O)C1 (stereo partly drawn)", "1 nM"),
    ("COc1cc(/C=C/c2cccc(-c3cccc(NC(=O)c4ccc(CN5CC[C@@H](O)C5)cn4)c3Cl)c2C)c(C(F)(F)F)cc1CNC[C@@H](O)CC(=O)O", "1 nM"),
    ("Cc1cc(/C=C/c2nccc(-c3cccc(NC(=O)c4ccc(CN5CCOCC5)cn4)c3C)c2C#N)c(Cl)cc1CN1CC[C@@H](C(=O)O)C1", "3 nM"),
    ("COc1cc(/C=C/c2cccc(-c3cccc(NC(=O)c4nc5c(n4C)CCN([C@H]4CC[C@H](O)CC4)C5)c3C)c2C)c(C(F)(F)F)cc1CN1CC[C@@H](C(=O)O)C1", "1 nM"),
    ("COc1cc(/C=C/c2cccc(-c3cccc(NC(=O)c4nc5c(n4C)CCN(C)C5)c3Cl)c2C)c(C(F)(F)F)cc1CN1CCCC[C@H]1C(=O)O", "2 nM"),
    ("Cc1cc(/C=C/c2cccc(-c3cccc(NC(=O)c4ccc(CN5CC[C@@H](O)C5)cn4)c3C)c2C)c(C2CC2)cc1CN1CC[C@@H](C(=O)O)C1", "1 nM"),
    ("COc1cc(/C=C/c2cccc(-c3cccc(NC(=O)c4ccc(CN5CC[C@@H](O)C5)cn4)c3Cl)c2C)c(C(F)(F)F)cc1CN1CC[C@@H](C(=O)O)C1", "1 nM"),
]

###

target: PD-1/PD-L1 (Homo sapiens, UniProt Q9NZQ7); construct: purchased Cisbio 63ADK000CPDPEB; assay: PD-1/PD-L1 binding assay (HTRF, PPI-HTRF); conditions: HTRF PD1/PD-L1 binding assay kit; 10 nM Tag1-PD-L1; 25° C.
Sequence (Q9NZQ7 19-238 limits assumed): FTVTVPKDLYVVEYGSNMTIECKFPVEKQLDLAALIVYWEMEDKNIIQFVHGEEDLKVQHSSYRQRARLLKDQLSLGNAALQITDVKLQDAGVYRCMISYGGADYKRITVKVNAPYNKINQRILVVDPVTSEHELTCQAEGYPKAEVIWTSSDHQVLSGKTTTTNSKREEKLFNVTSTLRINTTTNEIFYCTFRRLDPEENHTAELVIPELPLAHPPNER

# compound, censoring_qualifier, IC50 / nM
data = [
    ("Cc1cc(/C=C/c2nccc(-c3cccc(NC(=O)c4ccc(CN5CC[C@@H](O)C5)cn4)c3C)c2C#N)c(Cl)cc1CN1CC[C@@H](C(=O)O)C1", "=", 1),
    ("COc1cc(/C=C/c2cccc(-c3cccc(NC(=O)c4ccc(CN5CC[C@@H](O)C5)cn4)c3Cl)c2F)c(C(F)(F)F)cc1CN1CC[C@@H](C(=O)O)C1", "<", 1),
    ("COc1cc(/C=C/c2cccc(-c3cccc(NC(=O)c4ccc(CNCCS(C)(=N)=O)cn4)c3C)c2C)c(C(F)(F)F)cc1CN1CC[C@@H](C(=O)O)C1 (stereo partly drawn)", "=", 1),
]

###

target: PD-1/PD-L1 (Homo sapiens, UniProt Q9NZQ7); construct: purchased Cisbio 63ADK000CPDPEB; test: PD-1/PD-L1 binding assay (HTRF, PPI-HTRF); settings: HTRF PD1/PD-L1 binding assay kit; 10 nM Tag1-PD-L1; 25° C.
measured_endpoint: IC50

# molecule, assayed_system, measured_endpoint, observed_value
measured = [
    ("CNc1cc(C(=O)Nc2cccc(-c3cccc(/C=C/c4cc(OC)c(CN5CCC(C(=O)O)C5)cc4C(F)(F)F)c3C)c2C)ncc1CN1CC[C@@H](O)C1 (stereo partly shown)", "PD-1/PD-L1 (Homo sapiens, UniProt Q9NZQ7)", "IC50", "≤ 1 nM"),
    ("COc1cc(C(=O)Nc2cccc(-c3cccc(/C=C/c4cc(OC)c(CN5CC[C@@H](O)C5)cc4C(F)(F)F)c3C)c2C)ncc1CN1CC[C@@H](O)C1", "PD-1/PD-L1 (Homo sapiens, UniProt Q9NZQ7)", "IC50", "≤ 1 nM"),
    ("COc1cc(/C=C/c2cccc(-c3cccc(NC(=O)c4ccc(CN5CC[C@@H](O)C5)cn4)c3F)c2Cl)c(C(F)(F)F)cc1CN1CC[C@@H](C(=O)O)C1", "PD-1/PD-L1 (Homo sapiens, UniProt Q9NZQ7)", "IC50", "< 1 nM"),
    ("COc1cc(/C=C/c2cccc(-c3cccc(NC(=O)c4ccc(CN5CC[C@@H](O)C5)cn4)c3C)c2C)c(C(F)(F)F)cc1CN1CC[C@H](C(=O)O)C1", "PD-1/PD-L1 (Homo sapiens, UniProt Q9NZQ7)", "IC50", "< 1 nM"),
]

###

molecular target: PD-1/PD-L1 (Homo sapiens, UniProt Q9NZQ7); construct: purchased Cisbio 63ADK000CPDPEB; assay: PD-1/PD-L1 binding assay (HTRF, PPI-HTRF); conditions: HTRF PD1/PD-L1 binding assay kit; 10 nM Tag1-PD-L1; 25° C.
compounds and their reported IC50

# compound, IC50
measured = [
    ("COc1cc(/C=C/c2nccc(-c3cccc(-c4nc5cc(CN6CC[C@@H](C(=O)O)C6)cc(C#N)c5o4)c3C)c2C#N)c(C(F)(F)F)cc1CN1CC[C@@H](O)C1", "1 nM"),
    ("COc1cc(C(=O)Nc2cccc(-c3cccc(/C=C/c4cc(C)c(CN5CC[C@@H](C(=O)O)C5)cc4C(F)(F)F)c3C)c2C)ncc1CN1CC[C@@H](O)C1", "1 nM"),
    ("COc1cc(/C=C/c2ccnc(-c3cccc(Nc4nccc5cc(CN6CC[C@@H](O)C6)cnc45)c3C)c2Cl)c(C(F)(F)F)cc1CN1CC[C@@H](C(=O)O)C1", "1 nM"),
    ("COc1cc(/C=C/c2cccc(-c3cccc(NC(=O)c4ccc(CN5CC[C@@H](O)C5)cn4)c3Cl)c2C)c(C(F)(F)F)cc1CN1CCC[C@H]1C(=O)O", "1 nM"),
    ("COc1cc(/C=C/c2cccc(-c3cccc(Nc4nccc5cc(CN6CC[C@@H](O)C6)c(C(F)(F)F)nc45)c3C)c2C)c(C(F)(F)F)cc1CN1CC[C@@H](C(=O)O)C1", "3 nM"),
    ("COc1cc(/C=C/c2cccc(-c3cccc(-c4nc5cc(CN6CC[C@@H](C(=O)O)C6)cc(C#N)c5o4)c3F)c2C)c(C(F)(F)F)cc1CN1CC[C@@H](O)C1", "5 nM"),
    ("COc1cc(/C=C/c2nccc(-c3cccc(NC(=O)c4ccc(CN5CC[C@@H](O)C5)cn4)c3C)c2C#N)c(C(F)(F)F)cc1CN1CC[C@@H](C(=O)O)C1", "1 nM"),
    ("Cc1cc(/C=C/c2nccc(-c3cccc(NC(=O)c4nc5c(n4C)CCN(C)C5)c3C)c2C#N)c(Cl)cc1CN1CCCC[C@H]1C(=O)O", "2 nM"),
    ("COc1cc(/C=C/c2cccc(-c3cccc(NC(=O)c4cn5c(n4)CN(C)CC5)c3C)c2C)c(C(F)(F)F)cc1CN1CCC(C(=O)O)C1 (stereo not shown)", "1 nM"),
    ("COc1cc(/C=C/c2cccc(-c3cccc(NC(=O)c4ccc(CNC[C@@H]5CCC(=O)N5)cn4)c3C)c2C)c(C(F)(F)F)cc1CN1CC[C@@H](C(=O)O)C1", "1 nM"),
]
